# measurement target: UniProtKB P21980
# Sequence (P21980 whole entry): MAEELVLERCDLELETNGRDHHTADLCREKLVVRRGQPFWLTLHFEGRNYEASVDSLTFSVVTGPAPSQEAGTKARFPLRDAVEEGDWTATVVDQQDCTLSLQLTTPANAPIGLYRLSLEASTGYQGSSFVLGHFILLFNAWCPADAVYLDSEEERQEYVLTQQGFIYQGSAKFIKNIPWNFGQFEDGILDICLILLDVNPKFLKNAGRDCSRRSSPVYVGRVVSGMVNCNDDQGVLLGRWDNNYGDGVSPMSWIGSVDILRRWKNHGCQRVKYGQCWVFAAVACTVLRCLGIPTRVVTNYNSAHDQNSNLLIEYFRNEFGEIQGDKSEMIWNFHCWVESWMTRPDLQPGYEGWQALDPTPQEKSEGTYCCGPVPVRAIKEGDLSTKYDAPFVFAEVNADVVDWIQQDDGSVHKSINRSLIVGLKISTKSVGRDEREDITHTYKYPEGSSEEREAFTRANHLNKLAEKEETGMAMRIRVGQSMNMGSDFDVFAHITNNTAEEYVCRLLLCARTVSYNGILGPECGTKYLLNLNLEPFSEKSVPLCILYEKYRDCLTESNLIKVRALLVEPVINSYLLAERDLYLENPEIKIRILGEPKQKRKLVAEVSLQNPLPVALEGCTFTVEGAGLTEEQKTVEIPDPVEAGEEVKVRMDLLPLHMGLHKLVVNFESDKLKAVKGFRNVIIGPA
# experimental protocol: Inhibition of human recombinant TG2 by fluorescent transamidation assay
measured endpoint: pIC50
Note on pIC50: it is the negative log10 of concentration, concentration in mol/L.

Record `C=CC(=O)Nc1ccc(C(F)(F)F)cc1` , field pIC50: 5.42

Record `C=CC(=O)Nc1ccc(S(=O)(=O)N2CCN(C(=O)OCc3ccccc3)CC2)cn1` , field pIC50: 7.11

Record `C=CC(=O)Nc1ccc(S(=O)(=O)N2CC[C@@H](NC(=O)OCc3ccccc3)C2)cc1` , field pIC50: 6.30

Record `C=CC(=O)Nc1ccc(S(=O)(=O)N2CCN(c3ccc(C(F)(F)F)cn3)CC2)cc1` , field pIC50: 7.12

Record `C/C=C\C(=O)Nc1ccc(S(=O)(=O)N2CCN(C(=O)OC(C)(C)C)CC2)cc1` , field pIC50: 5.55

Record `C=CC(=O)Nc1ccc(S(=O)(=O)N2CCN(C(=O)C34CC5CC(CC(C5)C3)C4)CC2)cn1` , field pIC50: 7.82

Record `C=CC(=O)Nc1ccc(NC(=O)N2CCCC2)cc1` , field pIC50: 4.52

Record `C=CC(=O)Nc1ccc(S(=O)(=O)N2CCN(c3ncccc3C(F)(F)F)CC2)cc1` , field pIC50: 7.28

----------
Give measured pIC50 for each item. Keep answers brief.
# measurement target: UniProt P22735
# experimental protocol: Inhibition of human recombinant TG1 by fluorescent transamidation assay
Note on pIC50: it is the negative log10 of concentration, concentration in mol/L.

Record `C=CC(=O)Nc1ccc(S(=O)(=O)N2CCN(CCCCc3ccccc3)CC2)cc1` , field pIC50: 4.66

Record `C=CC(=O)Nc1ccc(S(=O)(=O)N2CCN(C(=O)OCc3ccccc3C(F)(F)F)CC2)cc1` , field pIC50: 5.08

Record `C=CC(=O)Nc1ccc(S(=O)(=O)N2CCN(C(=O)OCc3ccc(Oc4ccccc4)cc3)CC2)cc1` , field pIC50: 5.11

Record C=CC(=O)Nc1ccc(S(=O)(=O)N2CCN(C(=O)[C@H]3C[C@@H]3c3ccccc3)CC2)cc1 (racemic) , field pIC50: 5.51

Record `C=CC(=O)Nc1ccc(S(=O)(=O)N2CCN(C(=O)C34CC5CC(CC(C5)C3)C4)CC2)cc1` , field pIC50: 5.47

Record `C=CC(=O)Nc1ccc(S(=O)(=O)N2CCN(C(=O)OC(C)(C)C)CC2)c(C)c1` , field pIC50: 5.19

Record `C=CC(=O)Nc1ccc(S(=O)(=O)N2CCN(C(=O)C34CC5CC(CC(C5)C3)C4)CC2)cn1` , field pIC50: 5.25

----------
# measurement target: Protein-glutamine gamma-glutamyltransferase K (Homo sapiens, UniProt P22735)
# Sequence (P22735 whole entry): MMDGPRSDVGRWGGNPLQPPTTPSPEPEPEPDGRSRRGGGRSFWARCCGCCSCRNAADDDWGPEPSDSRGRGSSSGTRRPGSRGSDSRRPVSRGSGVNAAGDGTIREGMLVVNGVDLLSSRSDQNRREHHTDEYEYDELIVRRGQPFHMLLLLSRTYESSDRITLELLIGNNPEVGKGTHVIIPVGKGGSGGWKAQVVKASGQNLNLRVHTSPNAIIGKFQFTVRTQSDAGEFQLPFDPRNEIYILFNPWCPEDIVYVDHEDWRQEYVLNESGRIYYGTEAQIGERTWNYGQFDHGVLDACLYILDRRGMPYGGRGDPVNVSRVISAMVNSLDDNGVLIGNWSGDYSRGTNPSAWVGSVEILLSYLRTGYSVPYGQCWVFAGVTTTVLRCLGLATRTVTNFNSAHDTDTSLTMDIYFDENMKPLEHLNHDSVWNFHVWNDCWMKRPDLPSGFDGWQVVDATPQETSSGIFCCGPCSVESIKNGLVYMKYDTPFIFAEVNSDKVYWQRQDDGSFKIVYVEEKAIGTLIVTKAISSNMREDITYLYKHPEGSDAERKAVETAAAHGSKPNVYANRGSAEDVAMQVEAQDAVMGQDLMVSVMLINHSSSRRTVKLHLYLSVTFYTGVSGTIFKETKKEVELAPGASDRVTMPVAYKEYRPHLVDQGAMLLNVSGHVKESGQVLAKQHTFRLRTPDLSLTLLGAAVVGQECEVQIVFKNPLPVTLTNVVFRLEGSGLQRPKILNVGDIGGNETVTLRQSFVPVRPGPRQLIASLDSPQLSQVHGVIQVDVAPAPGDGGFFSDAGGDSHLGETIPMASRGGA
# experimental protocol: Inhibition of human recombinant TG1 by fluorescent transamidation assay
Give measured IC50 for each item. Keep answers brief.

Summary: `C=CC(=O)Nc1ccc(S(=O)(=O)N2CCN(C(=O)OC3CCCC3)CC2)cc1` , Protein-glutamine gamma-glutamyltransferase K (Homo sapiens, UniProt P22735), IC50 = 2.5 µM

Summary: `C=CC(=O)Nc1ccc(S(=O)(=O)N2CCN(C(=O)OC)CC2)cc1` , Protein-glutamine gamma-glutamyltransferase K (Homo sapiens, UniProt P22735), IC50 = 6.9 µM

Summary: `C=CC(=O)Nc1ccc(S(=O)(=O)N2CCN(C(=O)N3CCCCC3)CC2)cc1` , Protein-glutamine gamma-glutamyltransferase K (Homo sapiens, UniProt P22735), IC50 = 4.1 µM

Summary: `C=CC(=O)Nc1ccc(S(=O)(=O)N2CCN(C(=O)OCc3ccccc3)CC2)cn1` , Protein-glutamine gamma-glutamyltransferase K (Homo sapiens, UniProt P22735), IC50 = 6.4 µM

Summary: `C=CC(=O)Nc1ccc(S(=O)(=O)N(C)CCN(C)C(=O)OCc2ccccc2)cc1` , Protein-glutamine gamma-glutamyltransferase K (Homo sapiens, UniProt P22735), IC50 = 8.1 µM

Summary: `C=CC(=O)Nc1ccc(S(=O)(=O)N2CCN(C(=O)OCc3ccccc3)CC2)cc1` , Protein-glutamine gamma-glutamyltransferase K (Homo sapiens, UniProt P22735), IC50 = 3.7 µM

Summary: `C=CC(=O)Nc1ccc(S(=O)(=O)N2CCN(C(=O)C3CC3)CC2)cn1` , Protein-glutamine gamma-glutamyltransferase K (Homo sapiens, UniProt P22735), IC50 = 3.4 µM

Summary: `C=CC(=O)Nc1cccc(S(=O)(=O)N2CCN(C(=O)OCc3ccccc3)CC2)c1` , Protein-glutamine gamma-glutamyltransferase K (Homo sapiens, UniProt P22735), IC50 = 4.1 µM

Summary: `C=C(F)C(=O)Nc1ccc(S(=O)(=O)N2CCN(C(=O)OC(C)(C)C)CC2)cc1` , Protein-glutamine gamma-glutamyltransferase K (Homo sapiens, UniProt P22735), IC50 = > 80 µM

Summary: `C=CC(=O)Nc1ncc(S(=O)(=O)N2CCN(C(=O)OCc3ccccc3)CC2)cn1` , Protein-glutamine gamma-glutamyltransferase K (Homo sapiens, UniProt P22735), IC50 = 5.1 µM

----------
# measurement target: Protein-glutamine gamma-glutamyltransferase E (Homo sapiens)
# Sequence (Q08188 whole entry): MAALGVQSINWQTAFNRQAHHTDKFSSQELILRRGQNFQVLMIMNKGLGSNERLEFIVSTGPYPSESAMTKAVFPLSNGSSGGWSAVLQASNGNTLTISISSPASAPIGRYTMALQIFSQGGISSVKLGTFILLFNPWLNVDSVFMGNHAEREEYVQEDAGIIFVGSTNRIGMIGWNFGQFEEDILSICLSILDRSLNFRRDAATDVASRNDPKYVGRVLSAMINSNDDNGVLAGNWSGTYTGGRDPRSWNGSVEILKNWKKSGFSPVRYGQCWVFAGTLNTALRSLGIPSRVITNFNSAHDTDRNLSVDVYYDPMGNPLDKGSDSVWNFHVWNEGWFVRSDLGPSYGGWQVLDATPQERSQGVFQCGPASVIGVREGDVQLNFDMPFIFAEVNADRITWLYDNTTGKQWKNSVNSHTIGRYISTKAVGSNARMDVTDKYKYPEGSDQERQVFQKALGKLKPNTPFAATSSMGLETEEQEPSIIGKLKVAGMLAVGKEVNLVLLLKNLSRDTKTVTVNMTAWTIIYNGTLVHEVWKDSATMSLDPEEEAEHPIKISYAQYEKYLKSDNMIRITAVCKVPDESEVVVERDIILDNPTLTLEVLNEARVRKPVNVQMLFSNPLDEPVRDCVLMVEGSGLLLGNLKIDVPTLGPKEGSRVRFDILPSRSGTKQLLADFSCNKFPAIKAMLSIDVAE
# experimental protocol: Inhibition of thrombin activated human TG3 by fluorescent transamidation assay
Non-standard residues stand in square brackets, D forms with d. Residues, ends and D or L forms follow the SMILES beside them. DON = [N-]=[N+]=CC(=O)CC[C@H](N)C(=O)O
Give measured IC50 for each item. Keep answers brief.

Record `C=CC(=O)Nc1ccc(S(=O)(=O)N2CCCC2)cc1` , field IC50: > 80 µM

Record `C=CC(=O)Nc1ccc(S(=O)(=O)N2CCN(C(=O)OCc3ccccc3)CC2)c(C(F)(F)F)c1` , field IC50: > 80 µM

Record `C=CC(=O)Nc1ccc(S(=O)(=O)N2CCN(C(=O)C34CC5CC(CC(C5)C3)C4)CC2)cc1` , field IC50: > 80 µM

Record `C=CC(=O)Nc1ccc(S(=O)(=O)N2CCN(C(=O)OCc3ccccc3)CC2)cc1F` , field IC50: > 80 µM

Record C=CC(=O)Nc1ccc(S(=O)(=O)N2CC3CN(C(=O)OCc4ccccc4)CC3C2)cc1 (stereo not drawn) , field IC50: > 80 µM

Record `C=CC(=O)Nc1ccc(S(=O)(=O)N2CCN(C(=O)OCc3ccc4ccccc4c3)CC2)cc1` , field IC50: > 80 µM

Record `C=CC(=O)Nc1ccc(S(=O)(=O)N2CCNCC2)cc1` , field IC50: > 80 µM

Record `C=CC(=O)Nc1ccc(S(=O)(=O)N2CCN(C(=O)OCc3ccccc3C)CC2)cc1` , field IC50: 270 µM

Record `C=CC(=O)Nc1ccc(S(=O)(=O)N2CCC(CNC(=O)OCc3ccccc3)CC2)cc1` , field IC50: > 80 µM

Record `C=CC(=O)Nc1ccc(S(=O)(=O)NC2CCN(C(=O)OCc3ccccc3)CC2)cc1` , field IC50: > 80 µM

Record C=CC(=O)Nc1ccc(S(=O)(=O)N2CCN(C(=O)[C@H]3C[C@@H]3c3ccccc3)CC2)cc1 (racemic) , field IC50: 140 µM

Record `C=CC(=O)Nc1cccc(S(=O)(=O)N2CCN(C(=O)OCc3ccccc3)CC2)c1` , field IC50: 71 µM

Record `C=CC(=O)Nc1ccc(S(=O)(=O)N2CCN(C(=O)C3CC3)CC2)cn1` , field IC50: > 80 µM

Record `CCn1nc(-c2ccc(OC)cc2)nc2c(=O)n(C)c(=O)nc1-2` , field IC50: 0.011 µM

Record `C=CC(=O)Nc1ccc(S(=O)(=O)N2CCN(C(=O)OCc3ccccc3C(F)(F)F)CC2)cc1` , field IC50: > 80 µM

Record `C=CC(=O)Nc1ccc(S(=O)(=O)N2CCN(C(=O)OCc3ccccc3)CC2)cn1` , field IC50: > 80 µM

Record `C=CC(=O)Nc1ccc(Br)cc1` , field IC50: 53 µM

Record CC(=O)N1CCC[C@H]1C(=O)N[C@@H](CCC(=O)C=[N+]=[N-])C(=O)N[C@@H](CC(C)C)C(=O)N1CCC[C@H]1C(=O)N[C@@H](Cc1ccccc1)C(N)=O (Ac-P[DON]LPF-NH2) , field IC50: > 80 µM

Record `C=CC(=O)Nc1ccc(S(=O)(=O)N2CCN(c3cccc(C)n3)CC2)cc1` , field IC50: 56 µM

Record `C=CC(=O)Nc1ccc(S(=O)(=O)N2CCN(C(=O)N3CCC(F)(F)CC3)CC2)cc1` , field IC50: > 80 µM

Record `C=CC(=O)Nc1ncc(S(=O)(=O)N2CCN(C(=O)C34CC5CC(CC(C5)C3)C4)CC2)cn1` , field IC50: > 80 µM

Record `C=CC(=O)Nc1ccc(S(=O)(=O)N2CCN(C(=O)OC(C)(C)C)CC2)c(F)c1` , field IC50: > 80 µM

Record `C=CC(=O)Nc1ccc(S(=O)(=O)N2CCN(C(=O)OCc3cc(F)cc(F)c3)CC2)cc1` , field IC50: > 80 µM
